Where do the numbers come from? From patent US6919464B1.

Test system: Heliothis virescens
assay_notes: Tobacco Budworm (Heliothis virescens) topical assay
Assay type: in vivo
run_conditions: in vivo
Assign Tobacco Budworm Typical (48 h) Mortality (%) to each entry below.
Write the value in % as a bare number.

Could you tell me which Tobacco Budworm Typical (48 h) Mortality (%) is on file for CC/C=C/[C@H]1CCC[C@H](OC2CC[C@H](N(C)C)[C@@H](C)O2)[C@@H](C)C(=O)C2=CC3C(C=CC4C[C@@H](O[C@@H]5O[C@@H](C)[C@H](OC)[C@@H](OCCC)[C@H]5OC)CC43)C2CC(=O)O1 (some centres unmarked) ?
100

Could you tell me which Tobacco Budworm Typical (48 h) Mortality (%) is on file for CC/C=C/[C@H]1CCC[C@H](OC2CC[C@H](N(C)C)[C@@H](C)O2)[C@@H](C)C(=O)C2=CC3C(C=CC4C[C@@H](O[C@@H]5O[C@@H](C)[C@H](OC)[C@@H](OCC)[C@H]5OC)CC43)C2CC(=O)O1 (some centres unmarked) ?
100

Could you tell me which Tobacco Budworm Typical (48 h) Mortality (%) is on file for CCCC[C@H]1CCC[C@H](OC2CC[C@H](N(C)C)[C@@H](C)O2)[C@@H](C)C(=O)C2=CC3C4C[C@H](O[C@@H]5O[C@@H](C)[C@H](OC)[C@@H](OC)[C@H]5OC)CC4CCC3C2CC(=O)O1 (some centres unmarked) [Compound B3, 5,6,22,23-tetrahydro-for-rham-I] ?
100

Could you tell me which Tobacco Budworm Typical (48 h) Mortality (%) is on file for CCCC[C@H]1CCC[C@H](O[C@H]2CC[C@H](N(C)C)[C@@H](C)O2)[C@@H](C)C(=O)C2=CC3C4C[C@H](O[C@@H]5O[C@@H](C)[C@H](O)[C@@H](OC)[C@H]5OC)CC4CCC3C2CC(=O)O1 (some centres unmarked) ?
83

Could you tell me which Tobacco Budworm Typical (48 h) Mortality (%) is on file for CC/C=C/[C@H]1CCC[C@H](OC2CC[C@H](N(C)C)[C@@H](C)O2)[C@@H](C)C(=O)C2=CC3C(C=CC4C[C@@H](O[C@@H]5O[C@@H](C)[C@H](OCC)[C@@H](OCC)[C@H]5OC)CC43)C2CC(=O)O1 (some centres unmarked) ?
67
